MEASURED_TARGET: T1, feline OSMR on feline Fcwf-4 cells (feline, UniProt A0ABI8A843 28-960)
T1 sequence: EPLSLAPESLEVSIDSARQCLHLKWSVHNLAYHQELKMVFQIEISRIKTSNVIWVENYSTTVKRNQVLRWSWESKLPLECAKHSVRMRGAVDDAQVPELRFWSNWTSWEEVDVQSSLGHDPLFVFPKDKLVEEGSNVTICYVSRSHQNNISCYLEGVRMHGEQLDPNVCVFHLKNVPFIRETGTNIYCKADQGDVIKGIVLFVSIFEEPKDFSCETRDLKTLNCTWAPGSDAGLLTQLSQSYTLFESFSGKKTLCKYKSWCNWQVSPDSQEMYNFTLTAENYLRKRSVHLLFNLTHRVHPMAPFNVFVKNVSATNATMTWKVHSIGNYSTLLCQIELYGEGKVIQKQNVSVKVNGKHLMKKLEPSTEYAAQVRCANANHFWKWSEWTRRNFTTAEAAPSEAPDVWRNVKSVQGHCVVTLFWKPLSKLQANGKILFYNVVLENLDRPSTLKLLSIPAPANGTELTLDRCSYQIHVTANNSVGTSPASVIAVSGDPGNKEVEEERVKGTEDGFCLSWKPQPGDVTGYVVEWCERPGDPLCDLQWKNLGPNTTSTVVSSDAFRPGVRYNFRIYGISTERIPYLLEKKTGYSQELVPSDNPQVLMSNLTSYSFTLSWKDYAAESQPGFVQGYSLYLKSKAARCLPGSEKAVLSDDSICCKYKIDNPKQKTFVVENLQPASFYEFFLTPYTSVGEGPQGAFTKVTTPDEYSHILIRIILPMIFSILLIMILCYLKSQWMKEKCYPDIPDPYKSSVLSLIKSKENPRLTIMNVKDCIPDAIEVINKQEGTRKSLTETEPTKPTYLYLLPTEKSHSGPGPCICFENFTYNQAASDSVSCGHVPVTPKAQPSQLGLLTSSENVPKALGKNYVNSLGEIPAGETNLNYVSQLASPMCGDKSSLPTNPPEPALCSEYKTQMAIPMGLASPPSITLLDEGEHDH
TEST: cell-based or functional assay
OBSERVED_PROPERTY: % inh of feline IL-31 pSTAT3 signaling, feline Fcwf-4 cells (% inh)
Kindly answer with a numeric value in % inh, unit omitted.

stdin: Specify reported % inh of feline IL-31 pSTAT3 signaling, feline Fcwf-4 cells for the binder shown: Mu_02D09 (antibody, V domains shown, Mouse hybridoma IgG; also called mouse anti-OSMR 02D09) VH: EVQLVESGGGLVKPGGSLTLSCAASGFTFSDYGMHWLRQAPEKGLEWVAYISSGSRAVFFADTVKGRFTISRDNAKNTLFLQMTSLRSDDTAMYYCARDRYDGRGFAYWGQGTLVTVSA VL: DIVLTQSPATLSVTPGDSVSLSCRASQSISNNLHWYQQTSHESPRLLITYASQSISGIPSRFSGSGSGTDFTLSINSVETEDFGMYFCQQSNSWPLTFGAGTKLELK
stdout: 67
